Experiment: Cytotoxicity against human A549 cells assessed as intracellular ATP level by Celltiter-Glo luminescent assay
Assay type: cell-based
Quick reference: CC50 of the listed items.

-- ask Looking for the measured CC50 of C#C[C@@]1(O)[C@H](O)[C@@H](CO)O[C@H]1n1cc(C#N)c2c(N)ncnc21 , can you help?
-- reply > 100 µM

-- ask Please answer likewise for C[C@@]1(O)[C@H](O)[C@@H](CO)O[C@H]1n1cnc2c(N)ncnc21
-- reply > 50 µM

-- ask Please answer likewise for C#C[C@@]1(O)[C@H](O)[C@@H](CO)O[C@H]1n1cc(F)c2c(N)ncnc21
-- reply 44 µM

-- ask Please answer likewise for C#C[C@@]1(O)[C@H](O)[C@@H](CO)O[C@H]1n1ccc2c(N)ncnc21
-- reply > 100 µM

-- ask Please answer likewise for CC#C[C@@]1(O)[C@H](O)[C@@H](CO)O[C@H]1n1cnc2c(N)ncnc21
-- reply > 100 µM

====

Quick reference: CC50 of the listed items.
Test: Cytotoxicity against human A549 cells assessed as intracellular ATP level by Celltiter-Glo luminescent assay
Assay type: cell-based

>  <CPD_SMILES>
C=C[C@@]1(O)[C@H](O)[C@@H](CO)O[C@H]1n1cnc2c(N)ncnc21

>  <RECORDED_VALUE>
> 59 µM

$$$$
>  <CPD_SMILES>
C#C[C@@]1(O)[C@H](O)[C@@H](CO)O[C@H]1n1cc(C(N)=O)c2c(N)ncnc21

>  <RECORDED_VALUE>
62 µM

$$$$
>  <CPD_SMILES>
CC[C@@]1(O)[C@H](O)[C@@H](CO)O[C@H]1n1cnc2c(N)ncnc21

>  <RECORDED_VALUE>
> 100 µM

$$$$
>  <CPD_SMILES>
C#C[C@@]1(O)[C@H](O)[C@@H](CO)O[C@H]1n1cnc2c(=O)[nH]c(N)nc21

>  <RECORDED_VALUE>
> 100 µM

$$$$

-- ask Looking for the measured CC50 of C#C[C@@]1(O)[C@H](O)[C@@H](CO)O[C@H]1n1cnc2c(N)ncnc21 , can you help?
-- reply 40 µM

-- ask Please answer likewise for C#C[C@@]1(O)[C@H](O)[C@@H](CO)O[C@H]1n1ccc(N)nc1=O
-- reply > 100 µM

====

Quick reference: pEC50 of the listed items.
Test system: dengue virus type 2
Experiment: Antiviral activity against at 0.3 MOI Dengue virus 2 infected in human A549 cells assessed as level of E protein after 48 hrs by ELISA
Type: functional, organism-based
Settings: A549, 48 h
# log scale: pEC50 equals minus log10 of the concentration in mol/L

In the examples that follow, each entry is paired with its recorded pEC50.
>  <CPD_SMILES>
C#C[C@@]1(O)[C@H](O)[C@@H](CO)O[C@H]1n1cnc2c(N)ncnc21

>  <pEC50>
5.85

$$$$
>  <CPD_SMILES>
C#C[C@@]1(O)[C@H](O)[C@@H](CO)O[C@H]1n1cc(C(N)=O)c2c(N)ncnc21

>  <pEC50>
5.70

$$$$
>  <CPD_SMILES>
C#C[C@@]1(O)[C@H](O)[C@@H](CO)O[C@H]1n1cc(F)c2c(N)ncnc21

>  <pEC50>
6.38

$$$$
>  <CPD_SMILES>
C[C@@]1(O)[C@H](O)[C@@H](CO)O[C@H]1n1cnc2c(N)ncnc21

>  <pEC50>
5.95

$$$$
>  <CPD_SMILES>
C#C[C@@]1(O)[C@H](O)[C@@H](CO)O[C@H]1n1ccc2c(N)ncnc21

>  <pEC50>
6.15

$$$$

# evaluate next
-- ask Looking for the measured pEC50 of C#C[C@@]1(O)[C@H](O)[C@@H](CO)O[C@H]1n1cc(C#N)c2c(N)ncnc21 , can you help?
-- reply 5.51

# credit: ChEMBL document CHEMBL1629694
